The measurements presented in this section are drawn from patent EP3628672A1.

# TGT: purified LasB protein from P. aeruginosa (Pseudomonas aeruginosa, UniProt P14756)
# Construct: purchased Merck or Charles River Laboratories
# Sequence (P14756 198-498): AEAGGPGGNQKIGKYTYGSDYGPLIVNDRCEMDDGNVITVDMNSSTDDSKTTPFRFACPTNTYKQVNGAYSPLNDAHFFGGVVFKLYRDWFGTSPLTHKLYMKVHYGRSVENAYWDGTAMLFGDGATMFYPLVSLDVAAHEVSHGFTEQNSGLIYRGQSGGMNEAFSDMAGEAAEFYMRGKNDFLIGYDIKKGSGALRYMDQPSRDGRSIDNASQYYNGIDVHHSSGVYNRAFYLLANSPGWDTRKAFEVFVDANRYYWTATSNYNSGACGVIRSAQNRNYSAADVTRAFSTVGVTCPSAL
# ASSAY COMMENT: Fluorometric assay to determine Ki (Abz-Ala-Gly-Leu-Ala-p-Nitro-Benzyl-Amide substrate)
# Format: biochemical
pKi: −log10 of the molar value.
The following compounds are listed with their measured pKi values.

See these solved cases before continuing.
{"COMPOUND": "CN(C)CC(=O)Nc1cccc(-c2csc(CNC(=O)C3(CC(=O)O)Cc4ccccc4C3)n2)c1 [Example 41]", "RESULT": "5.00 to 6.70"}
{"COMPOUND": "COc1cc(OCC[N+]2(C)CCOCC2)ccc1-c1csc(CNC(=O)C2(CC(=O)[O-])Cc3cc(F)c(F)cc3C2)n1 [Example 68]", "RESULT": "6.70 to 7.30"}
{"COMPOUND": "CN1CCN(c2cccc(-c3csc(CNC(=O)C4(CC(=O)O)Cc5ccccc5C4)n3)c2)CC1 [Example 28]", "RESULT": "5.00 to 6.70"}
{"COMPOUND": "Cn1cc[n+](C)c1CCOc1ccc(-c2csc(CNC(=O)C3(CC(=O)[O-])Cc4ccccc4C3)n2)cc1 [Example 87]", "RESULT": "6.70 to 7.30"}
{"COMPOUND": "CN1CCN(C(=O)N2CCC(n3cc(-c4csc(CNC(=O)C5(CC(=O)O)Cc6ccccc6C5)n4)cn3)CC2)CC1 [Example 104]", "RESULT": "6.70 to 7.30"}

Need pKi, item C[N+](C)(C)CC(=O)Nc1cccc(-c2csc(CNC(=O)C3(CC(=O)[O-])Cc4ccccc4C3)n2)c1 [Example 42]
5.00 to 6.70

Need pKi, item CN(C)CCCNC(=O)c1ccccc1-c1csc(CNC(=O)C2(CC(=O)O)Cc3ccccc3C2)n1 [Example 21]
5.00 to 6.70

Need pKi, item CN1CCC(n2cc(-c3csc(CNC(=O)C4(CC(=O)O)Cc5ccccc5C4)n3)cn2)CC1 [Example 102]
5.00 to 6.70
